assay: Phase 1 single ascending dose (SAD) pharmacokinetics, fasted; format: in vivo, human; settings: male, human, plasma; single oral 8 mg/kg, fasted; geometric mean (%CV); read-out: Vz/F
OBSERVABLE: Vd/F

Name the recorded Vd/F of the compound listed here: C[C@@H]1C[C@H]2[C@@H]3CCC4=CC(=O)C=C[C@]4(C)C3=CC[C@]2(C)[C@@]1(O)C(=O)CO
10.4 L/kg

* * *

experiment: Phase 1 single ascending dose (SAD) pharmacokinetics, fasted; format: in vivo, human; settings: male, human, plasma; single oral 3 mg/kg, fasted; geometric mean (%CV); read-out: CL/F (converted)
OBSERVABLE: CL/F

Name the recorded CL/F of the compound listed here: C[C@@H]1C[C@H]2[C@@H]3CCC4=CC(=O)C=C[C@]4(C)C3=CC[C@]2(C)[C@@]1(O)C(=O)CO
31.3 mL/min/kg
